What IC50 was measured for each of the following?
# target: FNT of P. vivax (PvFNT) (Plasmodium vivax, UniProt A0A1G4GWI6)
# Sequence (A0A1G4GWI6 whole entry): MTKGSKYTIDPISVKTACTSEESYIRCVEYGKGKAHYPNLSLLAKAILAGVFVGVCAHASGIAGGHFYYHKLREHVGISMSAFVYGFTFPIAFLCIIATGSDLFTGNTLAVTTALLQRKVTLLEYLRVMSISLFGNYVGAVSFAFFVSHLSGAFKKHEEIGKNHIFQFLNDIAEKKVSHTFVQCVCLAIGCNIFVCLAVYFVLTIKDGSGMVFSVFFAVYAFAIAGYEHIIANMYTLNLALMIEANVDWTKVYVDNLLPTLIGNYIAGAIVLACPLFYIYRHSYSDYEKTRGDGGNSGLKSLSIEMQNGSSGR
# protocol_summary: Inhibition of the FNT of P. vivax
# Type: cell-based
# condition_info: read-out: IC50 for the FNT of P. vivax (PvFNT)
Answers are plain numbers, in nM.

COc1ccc(C(=O)C=C(O)C(F)(F)C(F)(F)F)cc1 [compound [2], reference compound] ... 249

Attention now shifts to the item below.
Consider COc1ccc(C(=O)C=C(O)C(F)(F)C(F)(F)F)c(O)c1 [compound [1], reference compound] . Its measured IC50 is 69

----------
# target: FNT of P. ovale (PoFNT) (Plasmodium ovale)
# protocol_summary: Inhibition of the FNT of P. ovale
measured_endpoint: IC50 (nM)
Give bare numbers, in nM.

Log: FNT of P. ovale (PoFNT) (Plasmodium ovale), compound O=C(C=C(O)C(F)(F)C(F)(F)F)c1cccnc1 [compound [16]] , IC50 = 213

----------
Give measured pIC50 for each item. Keep answers brief.
# target: PfFNT wildtype (Plasmodium falciparum)
# protocol_summary: Inhibition of radiolabelled L-lactate uptake in yeast expressing wild-type PfFNT
Answers are plain numbers, as −log10 of the molar value.

O=C(C=C(O)C(F)(F)C(F)(F)F)c1ccc(Cl)cn1 [compound [19]] ... 6.64
Cc1ccc(C(=O)C=C(O)C(F)(F)C(F)(F)F)cn1 [compound [18]] ... 6.82
COc1ccc(C(=O)C=C(O)C(F)(F)C(F)(F)F)cc1 [compound [2], reference compound] ... 6.85

Please examine the following record next.
# compound COc1ccc(C(=O)C=C(O)C(F)(F)C(F)(F)F)c(O)c1 [compound [1], reference compound] ; its pIC50 = 6.77

----------
Would you mind telling me the reported IC50 of each entry?
# target: PfFNT G107S (Plasmodium falciparum, UniProt O77389, G107S)
# Construct: expressed in transfected cells; host or cells: Saccharomyces cerevisiae W303-1A jen1Δ ady2Δ, plasmid pDR196
# protocol_summary: Inhibition of radiolabelled L-lactate uptake in yeast expressing G107S mutant PfFNT
# Assay type: cell-based
Give bare numbers, in µM.

Worked examples follow.
O=C(C=C(O)C(F)(F)C(F)(F)F)c1ccncc1 [compound [14]] ... 22
COc1ccc(C(=O)C=C(O)C(F)(F)C(F)(F)F)cn1 [compound [20]] ... 0.26
O=C(C=C(O)C(F)(F)C(F)(F)F)c1cccnc1 [compound [16]] ... 0.63
Cc1ccc(C(=O)C=C(O)C(F)(F)C(F)(F)F)cn1 [compound [18]] ... 1.7
O=C(C=C(O)C(F)(F)C(F)(F)F)c1ccccn1 [compound [15]] ... 0.58

// batch mode: one IC50 value per listed entry
1. O=C(C=C(O)C(F)(F)C(F)(F)F)c1ccc(Cl)cn1 [compound [19]]
2. O=C(C=C(O)C(F)(F)C(F)(F)F)c1cnccn1 [compound [13]]
3. O=C(C=C(O)C(F)(F)C(F)(F)F)c1cccnn1 [compound [12]]

[0.51, 1.2, 3.8]

----------
# target: PfFNT G107S (Plasmodium falciparum, UniProt O77389, G107S)
# Construct: expressed in transfected cells; host or cells: Saccharomyces cerevisiae W303-1A jen1Δ ady2Δ, plasmid pDR196
# Sequence (O77389 1-309 G107S): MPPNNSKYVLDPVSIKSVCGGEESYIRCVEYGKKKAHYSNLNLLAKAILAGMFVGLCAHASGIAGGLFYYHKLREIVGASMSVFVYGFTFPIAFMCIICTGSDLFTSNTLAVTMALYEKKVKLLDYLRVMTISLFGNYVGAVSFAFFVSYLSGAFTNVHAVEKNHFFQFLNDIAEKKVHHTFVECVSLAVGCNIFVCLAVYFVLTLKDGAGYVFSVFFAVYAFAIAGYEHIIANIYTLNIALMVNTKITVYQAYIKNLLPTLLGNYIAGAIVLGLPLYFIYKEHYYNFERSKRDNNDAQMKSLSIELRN
# protocol_summary: Inhibition of radiolabelled L-lactate uptake in yeast expressing G107S mutant PfFNT
# Format: cell-based
# condition_info: read-out: PfFNT G107S IC50; G107S mutant FNT; 1 mM lactate, pH 6.8, 30 s uptake
measured_endpoint: IC50 (µM)
Give bare numbers, in µM.

Recorded result, O=C(C=C(O)C(F)(F)C(F)(F)F)c1cnc2ccccc2c1 [compound [17]] , IC50: 96
